For each entry below, report its protein stability index value.
B1: GAGE1 (parent)
chain: RPRRYVQPPEMIGPMRPEQFSDEV

- Variants of: B1
- assay.info: protein stability index of a GFP-peptide fusion (GPS, HEK-293T) (PSI 1-6); higher = more stable;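 note: lentivirally expressed fusions sorted by FACS into six bins by GFP to DsRed ratio, PSI derived from sequencing read proportions per bin multiplied by bin number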
- condition.context: c terminus: a fixed tail appended
In your answer, state the number alone without any accompanying words.

Return reported protein stability index. Input variant: M11G 4.44

Return reported protein stability index. Input variant: R16T 3.8

Return reported protein stability index. Input variant: I12S 4.36

Return reported protein stability index. Input variant: E18S 3.33

Return reported protein stability index. Input variant: R3V 4.03

Return reported protein stability index. Input variant: E23N 3.42

Return reported protein stability index. Input variant: P17Q 4.15

Return reported protein stability index. Input variant: P2N 3.51

Return reported protein stability index. Input variant: E18L 3.52

Return reported protein stability index. Input variant: G13C 3.96

Return reported protein stability index. Input variant: P17H 3.92

Return reported protein stability index. Input variant: E10P 4.25

Return reported protein stability index. Input variant: E18I 3.13

Return reported protein stability index. Input variant: P14G 3.97

Return reported protein stability index. Input variant: Y5V 4.41

Return reported protein stability index. Input variant: P14N 4.2

Return reported protein stability index. Input variant: Y5W 3.61

Return reported protein stability index. Input variant: Q7K 4.02

Return reported protein stability index. Input variant: P14W 3.58

Return reported protein stability index. Input variant: V24A 4.52

Return reported protein stability index. Input variant: I12D 4.72

Return reported protein stability index. Input variant: Q7N 3.64

Return reported protein stability index. Input variant: R1M 3.98

Return reported protein stability index. Input variant: R16N 4.31

Return reported protein stability index. Input variant: Q19E 3.51

Return reported protein stability index. Input variant: M15E 4.78

Return reported protein stability index. Input variant: V24G 3.58

Return reported protein stability index. Input variant: R4P 4.11

Return reported protein stability index. Input variant: E23S 3.68

Return reported protein stability index. Input variant: R16V 4.16

Return reported protein stability index. Input variant: P17N 4.09

Return reported protein stability index. Input variant: Y5F 3.78

Return reported protein stability index. Input variant: R4F 3.88

Return reported protein stability index. Input variant: M15D 4.75

Return reported protein stability index. Input variant: P8T 4.12

Return reported protein stability index. Input variant: R3Y 3.1
